Please respond with reported z-score for every item in the list.
# protocolNotes: Plasmodium falciparum growth inhibition, primary screen, strain 3D7, DAPI fluorescence, 100 nL (AID 1184);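 further: parasites grown inside human red blood cells in medium with human serum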
# protocolConditions: P. falciparum 3D7 growth, 3 d, higher = more signal
Reply: number alone, nothing else.

(Q) What value of z-score has been recorded for this entry: COC(=O)CC1OC1[C@H](C)[C@@H](OC)C(C)C (stereo partly drawn)
(A) 0.599

(Q) Fill blank: measured z-score of the compound C=CC[C@@H]1C=C[C@H](ON=C(C)CCN2CCc3nc(CC)c(CC)cc3C2)[C@@H](CO)O1 is ____.
(A) -0.163

(Q) Endpoint output: z-score of COC(=O)C1=CCC(c2cccc(Cl)c2)O1 (stereo not drawn) . Value?
(A) -0.539

(Q) Quick check: z-score of CC(=O)OC[C@H]1O[C@H](CCON=C(C)CCN2CCc3nc(-c4ccccc4)c(-c4ccccc4)cc3C2)C=C[C@@H]1OC(C)=O ?
(A) -0.697

(Q) Any idea what its z-score is? The compound is Cn1cccc1C(O)C1C=CC2C(=O)NC(=O)C2N1Nc1ccccn1 (stereo not drawn)
(A) -0.119

(Q) Quick one: z-score of O=C1C2=CC[C@H]3C(=O)N(Cc4ccc5c(c4)OCO5)C(=O)[C@H]3[C@H]2[C@H](O)[C@@H]2O[C@H]12 ?
(A) 1.68

(Q) Which measured z-score value corresponds to CCN1C(=O)[C@H]2[C@H]3[C@H](O)[C@H](O)CC(=NOC[C@@H](C)[C@H](OCc4ccccc4)C(C)C)[C@@H]3CC[C@H]2C1=O ?
(A) 0.605

(Q) Given the compound COC(=O)[C@@H]1CC[C@H](C)[C@@H](c2ccc(C)cc2)N1C(=O)c1ccc(C=NOC(C)CN2CCCCc3nc(C)c(C)cc32)cc1 (stereo partly drawn) , what is its reported z-score?
(A) -1.76

====

# Tested on: Sam68 (KHDRBS1)
# protocolNotes: Sam68 small-molecule binders, primary screen, biochemical, small-molecule microarray, 635 nm fluorescence (AID 1125);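 further: score merges 667 nm channel intensity with signal to noise over triplicate slides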
# protocolConditions: small-molecule microarray binding, higher = more signal
Exercise: state measured composite z-score for each of the molecules provided.
Enter a number only.

(Q) Item under review: COc1cccc([C@H]2Oc3ccc(OC)cc3C(=NOC(C)CN3CCCc4nc(C)c(C)cc43)[C@@H]2O)c1 (stereo partly drawn) . Reported composite z-score?
(A) 1.14

(Q) composite z-score lookup needed for CC(C)NC(=O)[C@@]1(c2ccc([N+](=O)[O-])cc2)CC(=O)N(CC23CC4CC(CC(C4)C2)C3)[C@@H]1c1ccc(CO)cc1I , thanks.
(A) 1.27

(Q) Which composite z-score reading was recorded for the molecule O=C1O[C@@H](c2ccccc2)[C@@H](c2ccccc2)N2[C@@H](c3ccc(OCCO)cc3)[C@]3(C(=O)Nc4ccccc43)[C@@H](C(=O)N3CCN(c4ncccn4)CC3)[C@H]12 ?
(A) 1.3

====

# protocolNotes: binders of probe aFGF2 on microarray, primary screen, stem cell growth factor project, biochemical, small-molecule microarray, fluorescence 635/667 (AID 1067);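 further: measures binding of biotinylated aFGF2 protein to printed compounds on slides; z-score merges feature fluorescence and signal-to-noise across triplicate slides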
# protocolConditions: higher = more signal
Rule: composite z-score of -0.1 or more gives 1 (yes); anything lower gives 0 (no).

(Q) Evaluate C#C[C@@H]1Oc2ccccc2S(=O)(=O)N2CCC[C@H]12 : composite z-score at minimum -0.1?
(A) 0 (no)

(Q) Answer whether composite z-score of COC(=O)c1c(CC[C@@H](CO)NC(=O)N[C@H](Cc2ccccc2)Cn2cc(-c3ccccc3N)nn2)oc(C(C)=O)c1C(=O)OC is greater than or equal to -0.1.
(A) 1 (yes)

(Q) Determine whether this compound has composite z-score no lower than -0.1: CCOC(=O)C1=CC[C@H]2C(=O)N(CC)C(=O)[C@@H]12
(A) 1 (yes)

(Q) Entry O=C1CCCC=C1C(O)CCOCc1ccccc1 (stereo not drawn) : is its composite z-score no less than -0.1?
(A) 1 (yes)

(Q) API: above_or_equal(metric=composite z-score, cutoff=-0.1) for item C=CC[C@@H]1C=C[C@H](ON=C[C@@H](OC)[C@H](C)C=CCC(=O)OC)[C@@H](CO)O1
(A) 1 (yes)

(Q) Please tell me: is the compound CO[C@@H]1COC(=O)[C@H](C)NC(=O)[C@@H](C)COC(=O)CCC[C@H]1C at or over -0.1 in terms of composite z-score?
(A) 0 (no)

(Q) Entry CC(C)c1ccc(NN2C(C(O)c3ccc4c(c3)OCO4)C=CC3C(=O)N(c4ccccc4)C(=O)C32)cc1 (stereo not drawn) : is its composite z-score no less than -0.1?
(A) 1 (yes)

(Q) For this compound, is measured composite z-score -0.1 or higher? CCc1cc2c(nc1CC)CCN(CCC(C)=NOC[C@@H](O)COCc1ccco1)C2
(A) 0 (no)

(Q) # bool: composite z-score of CCOC(=O)[C@H](Cc1ccccc1)NC(=O)CCC1CC(OC(=O)NCc2ccc3c(c2)OCO3)CC2(CCCC(COC(=O)NCC3CCCCC3)O2)O1 (stereo partly drawn) >= -0.1
(A) 1 (yes)

(Q) Evaluate CCOC(=O)NN=C1C[C@@H](O)[C@@H](O)[C@@H]2[C@@H]3C(=O)N(C4CCCCC4)C(=O)[C@@H]3CC[C@@H]12 : composite z-score at minimum -0.1?
(A) 0 (no)

(Q) composite z-score >= -0.1 for CCOC(=O)CCN1C(=O)[C@H]2[C@H]3[C@H](O)[C@H](O)CC(=O)[C@H]3CC[C@H]2C1=O ?
(A) 0 (no)

(Q) In plain terms: is recorded composite z-score at least -0.1 for COC(=O)[C@@]1(Cc2ccc(OC)cc2)[C@H]2c3cc(C(=O)N4CCCC4)n(Cc4cc(F)c(F)c(F)c4)c3C[C@H]2CN1C(=O)c1ccccc1 ?
(A) 1 (yes)

(Q) Quick check: does Cc1cc2c(nc1C)CCCN2CC(O)CN1CCN(C)CC1 (stereo not drawn) have composite z-score greater than or equal to -0.1?
(A) 1 (yes)

(Q) Quick check: does CC(C)=NOCc1cccc(-c2cc(-c3ccccc3)no2)c1 have composite z-score greater than or equal to -0.1?
(A) 1 (yes)

(Q) Could you tell me if the measured composite z-score of CO[C@H]1COC(=O)CC=C[C@H](C)[C@@H](NS(=O)(=O)c2ccc(C)cc2)COC(=O)CC=C[C@@H]1C reaches -0.1 or more?
(A) 0 (no)

(Q) Hello, I need to know if O=C1[C@H]2[C@H]3[C@H](O)[C@H](O)CC(=NOCc4ccccc4)[C@@H]3CC[C@H]2C(=O)N1Cc1ccccc1 has measured composite z-score not below -0.1. Thanks!
(A) 0 (no)

(Q) Is the recorded value of composite z-score equal to or greater than -0.1 for this compound? CC(=O)OC[C@H]1O[C@@H](ON=C(C)CCN2CCc3nc(-c4ccccc4)c(-c4ccccc4)cc3C2)[C@H](OC(C)=O)[C@@H](OC(C)=O)[C@@H]1OC(C)=O
(A) 0 (no)

(Q) Dear colleague, could you confirm whether CCCC[C@@H]1C[C@H]1[C@@H](NS(=O)(=O)c1cccc2cccnc12)c1ccc(-c2ccccc2)cc1 has composite z-score at or above -0.1?
(A) 1 (yes)

(Q) Check if composite z-score >= -0.1 (inclusive). Item: CCCNC(=O)[C@@H]1c2ccccc2C(=O)N(Cc2ccccc2Cl)[C@H]1c1ccc(CO)cc1
(A) 1 (yes)

(Q) Could you tell me if the measured composite z-score of C#CCCCON=C1C[C@@H](O)[C@@H](O)[C@@H]2[C@@H]3C(=O)N([C@@H](C)c4ccccc4)C(=O)[C@@H]3CC[C@H]12 reaches -0.1 or more?
(A) 0 (no)

(Q) Form field: composite z-score at least -0.1? Entry: CN1C(=O)[C@@]2(CCC(=O)OC(C)(C)C)N=C(c3ccc(OCCCO)cc3)O[C@H]2c2ccccc21
(A) 1 (yes)

(Q) Reported composite z-score reaches at least -0.1 for C=COC[C@H]1CN2[C@@H](CC[C@@H](C)[C@@H]2c2ccc(Br)cc2)C(=O)O1 ?
(A) 0 (no)

(Q) Can CO[C@H]1COC(=O)[C@@H]2CCCN2C(=O)CC=C[C@@H](C)[C@H](OC)COC(=O)CC=C[C@@H]1C be said to have composite z-score at or above -0.1?
(A) 0 (no)

(Q) Check the entry CCCCC(=C=CC[C@H](O)c1ccccc1OCCO)C[C@H](O)COCc1ccccc1 : does composite z-score equal or exceed -0.1?
(A) 0 (no)

(Q) Please indicate if the recorded composite z-score for C[C@H](c1ccccc1)N1C(=O)[C@H]2[C@H]3[C@H](O)[C@H](O)CC(=O)[C@@H]3CC[C@H]2C1=O meets or exceeds -0.1.
(A) 1 (yes)

(Q) In plain terms: is recorded composite z-score at least -0.1 for Cc1cc(C)c(-c2cc([C@H](C)ON=C3[C@H]4CCn5c(=O)n(-c6ccccc6)c(=O)n5[C@H]4[C@H](O)[C@@H]4O[C@H]34)on2)c(C)c1 ?
(A) 1 (yes)

(Q) Test whether the compound CC(C)OC(=O)C=C1C[C@@H](c2ccc(C#N)cc2)O[C@@H](c2ccc(C#N)cc2)O1 records composite z-score of -0.1 or higher.
(A) 1 (yes)

(Q) Answer whether composite z-score of CC(C)N1CC=CC23O[C@@H]4C=CCCOC(=O)C4[C@H]2C(=O)N(CCCCCCO)[C@@H]3C1=O (stereo partly drawn) is greater than or equal to -0.1.
(A) 0 (no)

(Q) Check the entry CO[C@@H]1COC(=O)CC=C[C@@H](C)[C@@H]2C=C[C@H](O)[C@@H](COC(=O)CCC[C@H]1C)O2 : does composite z-score equal or exceed -0.1?
(A) 0 (no)

(Q) Decide: is the reported value of composite z-score for CCOC(=O)[C@H](CC(C)C)NC(=O)CCC1CC(OC(=O)NCc2cccc3ccccc23)CC2(CCCC(COC(=O)NCCc3ccccc3OC)O2)O1 (stereo partly drawn) equal to or greater than -0.1?
(A) 0 (no)

(Q) Tell me whether composite z-score is at least -0.1 here: O=C1[C@H]2[C@H]3[C@H](O)[C@H](O)CC(=NO[C@@H]4O[C@H](CO)[C@@H](O)[C@H](O)[C@H]4O)[C@@H]3CC[C@H]2C(=O)N1Cc1ccccc1
(A) 1 (yes)

(Q) Threshold query (composite z-score >= -0.1) on CC(CCN1CCCCc2nc(C)c(C)cc21)=NOC(C)CN1CCCc2nc(C)c(C)cc21 (stereo not drawn)
(A) 1 (yes)

(Q) Evaluate CO[C@H]1COC(=O)[C@@H]2CCCN2C(=O)[C@@H](C)COC(=O)CC=C[C@@H]1C : composite z-score at minimum -0.1?
(A) 0 (no)
